# measurement_target: HLA-B*18:01 (human)
# protocol_summary: radioligand competition, purified MHC

>  <binder>
ELPDEFVVVTV (modifications not checked) [… (SEQ ID NO: 8)]

>  <op>
=

>  <IC50, µM>
1.13

$$$$
>  <binder>
ELPDEFVVV (modifications not checked) [… (SEQ ID NO: 12)]

>  <op>
>

>  <IC50, µM>
70

$$$$
>  <binder>
VGYLQPRTF (modifications not checked) [… (SEQ ID NO: 39)]

>  <op>
=

>  <IC50, µM>
0.707

$$$$
>  <binder>
KNIDGYFKIY (modifications not checked) [… (SEQ ID NO: 36)]

>  <op>
>

>  <IC50, µM>
70

$$$$
>  <binder>
HADQLTPTW (modifications not checked) [… (SEQ ID NO: 35)]

>  <op>
=

>  <IC50, µM>
3.35

$$$$
>  <binder>
IRQEEVQEL (modifications not checked) [… (SEQ ID NO: 31)]

>  <op>
>

>  <IC50, µM>
70

$$$$
>  <binder>
KAFQLTPIAV (modifications not checked) [… (SEQ ID NO: 13)]

>  <op>
=

>  <IC50, µM>
3.87

$$$$
>  <binder>
SEFSSLPSY (modifications not checked) [… (SEQ ID NO: 27)]

>  <op>
=

>  <IC50, µM>
0.00037

$$$$
>  <binder>
STSAFVETV (modifications not checked) [… (SEQ ID NO: 19)]

>  <op>
>

>  <IC50, µM>
70

$$$$
>  <binder>
APRITFGGP (modifications not checked) [… (SEQ ID NO: 42)]

>  <op>
>

>  <IC50, µM>
70

$$$$
>  <binder>
LEDKAFQL (modifications not checked) [LEDKAFQL (SEQ ID NO: 10)]

>  <op>
=

>  <IC50, µM>
0.035

$$$$
>  <binder>
FAVDAAKAY (modifications not checked) [… (SEQ ID NO: 28)]

>  <op>
=

>  <IC50, µM>
35.9

$$$$
>  <binder>
DEFVVVTV (modifications not checked) [DEFVVVTV (SEQ ID NO: 11)]

>  <op>
<

>  <IC50, µM>
0.0005

$$$$
>  <binder>
NATNVVIKV (modifications not checked) [… (SEQ ID NO: 37)]

>  <op>
>

>  <IC50, µM>
70

$$$$
>  <binder>
EEFEPSTQYEY (modifications not checked) [… (SEQ ID NO: 20)]

>  <op>
=

>  <IC50, µM>
0.0011

$$$$
>  <binder>
FASEAARVV (modifications not checked) [… (SEQ ID NO: 17)]

>  <op>
=

>  <IC50, µM>
49.5

$$$$
